System: P388
Experiment: Percent inhibition of [123I]UdR incorporation in the DNA synthesis assay in P388 cell lines at a concentration of 10 E-3 M
Format: functional
Details: Mus musculus, in the assay text read “[125I]UdR” for “[123I]UdR”
Mark FALSE for inhibition at 1000 µM values under 2%, and TRUE for everything at or above.

Cc1ccc(CC(CO)NC(=O)/C=C/c2c(C)nc(O)nc2O)cc1 (stereo not drawn) | FALSE
Nc1ccn([C@@H]2O[C@H](CO)[C@@H](O)[C@@H]2O)c(=O)n1 [CYTARABINE] | TRUE
Cc1ccc(CCNC(=O)/C=C/c2c(C)nc(O)nc2O)cc1 | FALSE
Cc1nc(O)nc(O)c1/C=C/C(=O)NC(CO)Cc1ccccc1 (stereo not drawn) | TRUE
Cc1nc(O)nc(O)c1/C=C/C(=O)NC(CO)Cc1ccc(Br)cc1 (stereo not drawn) | TRUE

Please indicate if the recorded inhibition at 1000 µM for Cc1nc(O)nc(O)c1/C=C/C(=O)NCCc1ccc(Br)cc1 meets or exceeds 2%.
TRUE

Param item: Cc1nc(O)nc(O)c1/C=C/C(=O)NCCc1ccccc1
TRUE
